measurement protocol: Growth of human H1299 cells at 1 uM after 48 hrs by MTT assay
measurement context: NCI-H1299, 48 h
measured endpoint: growth, % of control at 1 µM (%)

>  <structure as smiles>
O=C(CCl)Nc1ccc2c(c1NC(=O)CCCCl)C(=O)c1ccccc1C2=O

>  <measured endpoint>
growth, % of control at 1 µM

>  <unit abbreviation>
%

>  <recorded result>
100

$$$$
>  <structure as smiles>
O=C(CCl)Nc1ccc2c(c1NC(=O)c1ccno1)C(=O)c1ccccc1C2=O

>  <measured endpoint>
growth, % of control at 1 µM

>  <unit abbreviation>
%

>  <recorded result>
105

$$$$
>  <structure as smiles>
O=C(CCl)Nc1ccc2c(c1NC(=O)c1ccc(Cl)cc1)C(=O)c1ccccc1C2=O

>  <measured endpoint>
growth, % of control at 1 µM

>  <unit abbreviation>
%

>  <recorded result>
92

$$$$
>  <structure as smiles>
O=C(CCl)Nc1ccc2c(c1NC(=O)CCCl)C(=O)c1ccccc1C2=O

>  <measured endpoint>
growth, % of control at 1 µM

>  <unit abbreviation>
%

>  <recorded result>
103

$$$$
>  <structure as smiles>
Cc1ccc(C(=O)Nc2c(NC(=O)CN(C)CCc3ccccn3)ccc3c2C(=O)c2ccccc2C3=O)cc1

>  <measured endpoint>
growth, % of control at 1 µM

>  <unit abbreviation>
%

>  <recorded result>
90

$$$$
>  <structure as smiles>
O=C(CCl)Nc1ccc2c(c1NC(=O)CCl)C(=O)c1ccccc1C2=O

>  <measured endpoint>
growth, % of control at 1 µM

>  <unit abbreviation>
%

>  <recorded result>
8

$$$$
>  <structure as smiles>
Cc1ccc(C(=O)Nc2c(NC(=O)CN3CCOCC3)ccc3c2C(=O)c2ccccc2C3=O)cc1

>  <measured endpoint>
growth, % of control at 1 µM

>  <unit abbreviation>
%

>  <recorded result>
81

$$$$
>  <structure as smiles>
Cc1ccccc1C(=O)Nc1c(NC(=O)CCl)ccc2c1C(=O)c1ccccc1C2=O

>  <measured endpoint>
growth, % of control at 1 µM

>  <unit abbreviation>
%

>  <recorded result>
73

$$$$
>  <structure as smiles>
O=C(CCl)Nc1ccc2c(c1NC(=O)c1cccs1)C(=O)c1ccccc1C2=O

>  <measured endpoint>
growth, % of control at 1 µM

>  <unit abbreviation>
%

>  <recorded result>
0

$$$$
>  <structure as smiles>
O=C(CCl)Nc1ccc2c(c1NC(=O)c1cccc(C(F)(F)F)c1)C(=O)c1ccccc1C2=O

>  <measured endpoint>
growth, % of control at 1 µM

>  <unit abbreviation>
%

>  <recorded result>
94

$$$$
>  <structure as smiles>
Nc1c(NC(=O)CCl)ccc2c1C(=O)c1ccccc1C2=O

>  <measured endpoint>
growth, % of control at 1 µM

>  <unit abbreviation>
%

>  <recorded result>
8

$$$$
>  <structure as smiles>
O=C(CCl)Nc1ccc2c(c1NC(=O)Cc1ccc(F)cc1)C(=O)c1ccccc1C2=O

>  <measured endpoint>
growth, % of control at 1 µM

>  <unit abbreviation>
%

>  <recorded result>
88

$$$$
>  <structure as smiles>
O=C(CCCCl)Nc1ccc2c(c1NC(=O)CCCCl)C(=O)c1ccccc1C2=O

>  <measured endpoint>
growth, % of control at 1 µM

>  <unit abbreviation>
%

>  <recorded result>
103

$$$$
>  <structure as smiles>
Cc1ccc(C(=O)Nc2ccc3c(c2NC(=O)c2ccc(C)cc2)C(=O)c2ccccc2C3=O)cc1

>  <measured endpoint>
growth, % of control at 1 µM

>  <unit abbreviation>
%

>  <recorded result>
100

$$$$
>  <structure as smiles>
Cc1ccc(C(=O)Nc2c(NC(=O)CN3CCCCC3)ccc3c2C(=O)c2ccccc2C3=O)cc1

>  <measured endpoint>
growth, % of control at 1 µM

>  <unit abbreviation>
%

>  <recorded result>
86

$$$$
>  <structure as smiles>
O=C(CCl)Nc1ccc2c(c1NC(=O)c1cccc(Cl)c1)C(=O)c1ccccc1C2=O

>  <measured endpoint>
growth, % of control at 1 µM

>  <unit abbreviation>
%

>  <recorded result>
89

$$$$
>  <structure as smiles>
O=C(CCl)Nc1ccc2c(c1NC(=O)c1cccc(F)c1)C(=O)c1ccccc1C2=O

>  <measured endpoint>
growth, % of control at 1 µM

>  <unit abbreviation>
%

>  <recorded result>
18

$$$$
>  <structure as smiles>
Cc1ccc(C(=O)Nc2c(NC(=O)CN3CCN(c4ccccn4)CC3)ccc3c2C(=O)c2ccccc2C3=O)cc1

>  <measured endpoint>
growth, % of control at 1 µM

>  <unit abbreviation>
%

>  <recorded result>
105

$$$$
>  <structure as smiles>
Cc1ccc(C(=O)Nc2c(NC(=O)CN(C)CC3OCCO3)ccc3c2C(=O)c2ccccc2C3=O)cc1

>  <measured endpoint>
growth, % of control at 1 µM

>  <unit abbreviation>
%

>  <recorded result>
104

$$$$
>  <structure as smiles>
Cc1ccc(C(=O)Nc2c(NC(=O)CN3CCN(CCO)CC3)ccc3c2C(=O)c2ccccc2C3=O)cc1

>  <measured endpoint>
growth, % of control at 1 µM

>  <unit abbreviation>
%

>  <recorded result>
71

$$$$
>  <structure as smiles>
O=C(CCCl)Nc1ccc2c(c1NC(=O)CCCl)C(=O)c1ccccc1C2=O

>  <measured endpoint>
growth, % of control at 1 µM

>  <unit abbreviation>
%

>  <recorded result>
101

$$$$
>  <structure as smiles>
Cc1ccc(C(=O)Nc2c(NC(=O)CN3CCN(c4ccccc4)CC3)ccc3c2C(=O)c2ccccc2C3=O)cc1

>  <measured endpoint>
growth, % of control at 1 µM

>  <unit abbreviation>
%

>  <recorded result>
80

$$$$
>  <structure as smiles>
O=C(CCl)Nc1ccc2c(c1NC(=O)c1ccc(F)cc1)C(=O)c1ccccc1C2=O

>  <measured endpoint>
growth, % of control at 1 µM

>  <unit abbreviation>
%

>  <recorded result>
10

$$$$
>  <structure as smiles>
O=C(CCl)Nc1ccc2c(c1NC(=O)c1ccccc1Cl)C(=O)c1ccccc1C2=O

>  <measured endpoint>
growth, % of control at 1 µM

>  <unit abbreviation>
%

>  <recorded result>
101

$$$$
>  <structure as smiles>
O=C(CCl)Nc1ccc2c(c1NC(=O)CSc1ccccc1)C(=O)c1ccccc1C2=O

>  <measured endpoint>
growth, % of control at 1 µM

>  <unit abbreviation>
%

>  <recorded result>
88

$$$$

* * *

experimental system: Telomerase reverse transcriptase (Homo sapiens)
measurement protocol: Residual activity of human TERT in H1299 cells at 100 uM after 24 hrs by SEAP reporter gene assay

>  <structure as smiles>
O=C(CCCCl)Nc1ccc2c(c1NC(=O)CCCCl)C(=O)c1ccccc1C2=O

>  <experimental system>
Telomerase reverse transcriptase (Homo sapiens)

>  <unit abbreviation>
%

>  <residual activity>
15

$$$$
>  <structure as smiles>
O=C(CCl)Nc1ccc2c(c1NC(=O)c1ccccc1C(F)(F)F)C(=O)c1ccccc1C2=O

>  <experimental system>
Telomerase reverse transcriptase (Homo sapiens)

>  <unit abbreviation>
%

>  <residual activity>
2

$$$$
>  <structure as smiles>
O=C(CCl)Nc1ccc2c(c1NC(=O)CSc1ccccc1)C(=O)c1ccccc1C2=O

>  <experimental system>
Telomerase reverse transcriptase (Homo sapiens)

>  <unit abbreviation>
%

>  <residual activity>
0

$$$$
>  <structure as smiles>
Cc1ccc(C(=O)Nc2c(NC(=O)CN3CCN(c4ncccn4)CC3)ccc3c2C(=O)c2ccccc2C3=O)cc1

>  <experimental system>
Telomerase reverse transcriptase (Homo sapiens)

>  <unit abbreviation>
%

>  <residual activity>
19

$$$$
>  <structure as smiles>
O=C(CCl)Nc1ccc2c(c1NC(=O)c1cccc(F)c1)C(=O)c1ccccc1C2=O

>  <experimental system>
Telomerase reverse transcriptase (Homo sapiens)

>  <unit abbreviation>
%

>  <residual activity>
0

$$$$
>  <structure as smiles>
O=C(CCl)Nc1ccc2c(c1NC(=O)c1cccs1)C(=O)c1ccccc1C2=O

>  <experimental system>
Telomerase reverse transcriptase (Homo sapiens)

>  <unit abbreviation>
%

>  <residual activity>
2

$$$$
>  <structure as smiles>
Cc1ccc(C(=O)Nc2c(NC(=O)CN(C)C)ccc3c2C(=O)c2ccccc2C3=O)cc1

>  <experimental system>
Telomerase reverse transcriptase (Homo sapiens)

>  <unit abbreviation>
%

>  <residual activity>
9

$$$$
>  <structure as smiles>
Cc1ccc(C(=O)Nc2c(NC(=O)CN3CCN(CCO)CC3)ccc3c2C(=O)c2ccccc2C3=O)cc1

>  <experimental system>
Telomerase reverse transcriptase (Homo sapiens)

>  <unit abbreviation>
%

>  <residual activity>
0

$$$$
>  <structure as smiles>
Cc1ccccc1C(=O)Nc1c(NC(=O)CCl)ccc2c1C(=O)c1ccccc1C2=O

>  <experimental system>
Telomerase reverse transcriptase (Homo sapiens)

>  <unit abbreviation>
%

>  <residual activity>
0

$$$$
>  <structure as smiles>
O=C(CCl)Nc1ccc2c(c1NC(=O)CCl)C(=O)c1ccccc1C2=O

>  <experimental system>
Telomerase reverse transcriptase (Homo sapiens)

>  <unit abbreviation>
%

>  <residual activity>
13

$$$$
>  <structure as smiles>
Cc1ccc(C(=O)Nc2c(NC(=O)CN3CCN(c4ccccn4)CC3)ccc3c2C(=O)c2ccccc2C3=O)cc1

>  <experimental system>
Telomerase reverse transcriptase (Homo sapiens)

>  <unit abbreviation>
%

>  <residual activity>
9

$$$$
>  <structure as smiles>
Cc1ccc(C(=O)Nc2c(NC(=O)CN3CCOCC3)ccc3c2C(=O)c2ccccc2C3=O)cc1

>  <experimental system>
Telomerase reverse transcriptase (Homo sapiens)

>  <unit abbreviation>
%

>  <residual activity>
3

$$$$
>  <structure as smiles>
Cc1ccc(C(=O)Nc2c(NC(=O)CN(C)CCc3ccccn3)ccc3c2C(=O)c2ccccc2C3=O)cc1

>  <experimental system>
Telomerase reverse transcriptase (Homo sapiens)

>  <unit abbreviation>
%

>  <residual activity>
22

$$$$
>  <structure as smiles>
O=C(CCl)Nc1ccc2c(c1NC(=O)Cc1ccccc1)C(=O)c1ccccc1C2=O

>  <experimental system>
Telomerase reverse transcriptase (Homo sapiens)

>  <unit abbreviation>
%

>  <residual activity>
7

$$$$
>  <structure as smiles>
Cc1ccc(C(=O)Nc2c(NC(=O)CN(C)CC3OCCO3)ccc3c2C(=O)c2ccccc2C3=O)cc1

>  <experimental system>
Telomerase reverse transcriptase (Homo sapiens)

>  <unit abbreviation>
%

>  <residual activity>
10

$$$$
>  <structure as smiles>
Cc1ccc(C(=O)Nc2c(NC(=O)CN3CCN(c4ccccc4)CC3)ccc3c2C(=O)c2ccccc2C3=O)cc1

>  <experimental system>
Telomerase reverse transcriptase (Homo sapiens)

>  <unit abbreviation>
%

>  <residual activity>
15

$$$$
>  <structure as smiles>
Cc1cc(C(=O)Nc2c(NC(=O)CCl)ccc3c2C(=O)c2ccccc2C3=O)c(C)o1

>  <experimental system>
Telomerase reverse transcriptase (Homo sapiens)

>  <unit abbreviation>
%

>  <residual activity>
0

$$$$
>  <structure as smiles>
Cc1cccc(C(=O)Nc2c(NC(=O)CCl)ccc3c2C(=O)c2ccccc2C3=O)c1

>  <experimental system>
Telomerase reverse transcriptase (Homo sapiens)

>  <unit abbreviation>
%

>  <residual activity>
0

$$$$
>  <structure as smiles>
O=C(CCCl)Nc1ccc2c(c1NC(=O)CCCl)C(=O)c1ccccc1C2=O

>  <experimental system>
Telomerase reverse transcriptase (Homo sapiens)

>  <unit abbreviation>
%

>  <residual activity>
15

$$$$
>  <structure as smiles>
Cc1ccc(C(=O)Nc2ccc3c(c2NC(=O)c2ccc(C)cc2)C(=O)c2ccccc2C3=O)cc1

>  <experimental system>
Telomerase reverse transcriptase (Homo sapiens)

>  <unit abbreviation>
%

>  <residual activity>
30

$$$$

Each recorded value in this set is attributed to ChEMBL document CHEMBL1926565.
